test: Cytotoxicity study using MTT assay, NIH/3T3; format: cell-based, mouse; conditions: mouse, NIH/3T3 fibroblast cells; NIH/3T3, inhibitor concentration 20 μM, extract, 24 h, MTT, mean; read-out: Cell Viability (%) NIH/3T3 M
Kindly state viability at 24 h, 20 µM (stock) for each of the entries shown.
The reply should consist of the numeric value with the unit placed after it.

Data request: Given the entry C=C(C)C(=O)Nc1ccc(Oc2ccc(NC(=O)C(=C)C)cc2)cc1 , report its measured viability at 24 h, 20 µM (stock).
Data returned: 83.7%

Data request: Given the entry C=C(C)C(=O)OCCCCCOc1ccc(-c2ccc(C#N)cc2)cc1 , report its measured viability at 24 h, 20 µM (stock).
Data returned: 78.6%

Data request: Given the entry C=C(C)C(=O)Oc1ccc(-c2ccc(C#N)cc2)cc1 , report its measured viability at 24 h, 20 µM (stock).
Data returned: 85.1%
